# monocytes listing for each entry below
# ASSAY INFO: Hematology assays in cynomolgus monkeys (Example 45)
# Format: in vivo
# CONDITION INFO: day 71
READOUT KIND: monocytes (%)

{"columns": ["SUBSTANCE", "READOUT KIND", "ENDPOINT VALUE"],
 "data": [
  ["ISIS 416838: MOE gapmer, nucleobases 1018 to 1042 of SEQ ID NO: 1 (Table 6) (antisense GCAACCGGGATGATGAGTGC; MOE gapmer, wing and gap sizes not given here)", "monocytes", 4.3],
  ["ISIS 417002: MOE gapmer, nucleobases 1275 to 1318 of SEQ ID NO: 1 (Table 8) (antisense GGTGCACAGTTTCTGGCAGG; MOE gapmer, wing and gap sizes not given here)", "monocytes", 4.7],
  ["ISIS 416864: MOE gapmer, nucleobases 1275 to 1318 of SEQ ID NO: 1 (Table 8) (antisense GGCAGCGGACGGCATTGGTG; MOE gapmer, wing and gap sizes not given here)", "monocytes", 3.7],
  ["ISIS 416858: MOE gapmer, nucleobases 1275 to 1318 of SEQ ID NO: 1 (Table 8) (antisense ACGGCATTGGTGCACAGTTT; MOE gapmer, wing and gap sizes not given here)", "monocytes", 4.9]
]}

###

# body weight listing for each entry below
# ASSAY INFO: Body and organ weights of cynomolgus monkeys (Example 46)
# Assay type: in vivo
# CONDITION INFO: day −7
Strand notation (5' to 3'): a small letter for the sugar, then the base; units joined by * are phosphorothioate-linked, units joined directly phosphodiester-linked; [ ] holds rarer units or linkages, { } end groups; capitals alone tell only the bases. e = 2'-O-(2-methoxyethyl) (MOE); [5mC] = 5-methylcytosine; d = 2'-deoxy (DNA)

{"columns": ["SUBSTANCE", "body weight"],
 "data": [
  ["ISIS 445522: 5-8-5 or 6-8-6 MOE microwalk gapmer (Table 44) (antisense eG*e[5mC]*eA*e[5mC]*eA*dG*dT*dT*dT*d[5mC]*dT*dG*dG*e[5mC]*eA*eG*eG*e[5mC])", "2042 g"],
  ["ISIS 449707: 3-8-3, 4-8-4, 2-10-2, 3-10-3 or 4-10-4 MOE microwalk gapmer (Table 46) (antisense e[5mC]*eA*e[5mC]*eA*dG*dT*dT*dT*d[5mC]*dT*dG*dG*e[5mC]*eA*eG*eG)", "2083 g"],
  ["ISIS 449710: 3-8-3, 4-8-4, 2-10-2, 3-10-3 or 4-10-4 MOE microwalk gapmer (Table 46) (antisense e[5mC]*eA*e[5mC]*dA*dG*dT*dT*dT*d[5mC]*dT*dG*dG*d[5mC]*eA*eG*eG)", "2114 g"],
  ["ISIS 449708: 3-8-3, 4-8-4, 2-10-2, 3-10-3 or 4-10-4 MOE microwalk gapmer (Table 46) (antisense eA*e[5mC]*eA*dG*dT*dT*dT*d[5mC]*dT*dG*dG*e[5mC]*eA*eG)", "2163 g"],
  ["ISIS 449709: 3-8-3, 4-8-4, 2-10-2, 3-10-3 or 4-10-4 MOE microwalk gapmer (Table 46) (antisense eG*e[5mC]*eA*e[5mC]*dA*dG*dT*dT*dT*d[5mC]*dT*dG*dG*d[5mC]*eA*eG*eG*e[5mC])", "2093 g"],
  ["ISIS 416850: MOE gapmer, nucleobases 1275 to 1318 of SEQ ID NO: 1 (Table 8) (antisense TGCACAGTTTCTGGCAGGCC; MOE gapmer, wing and gap sizes not given here)", "2074 g"],
  ["ISIS 445531: 5-8-5 or 6-8-6 MOE microwalk gapmer (Table 44) (antisense eG*eG*e[5mC]*eA*eT*dT*dG*dG*dT*dG*d[5mC]*dA*d[5mC]*eA*eG*eT*eT*eT)", "2092 g"],
  ["ISIS 449711: 3-8-3, 4-8-4, 2-10-2, 3-10-3 or 4-10-4 MOE microwalk gapmer (Table 46) (antisense eA*e[5mC]*dA*dG*dT*dT*dT*d[5mC]*dT*dG*dG*d[5mC]*eA*eG)", "2105 g"],
  ["ISIS 416858: MOE gapmer, nucleobases 1275 to 1318 of SEQ ID NO: 1 (Table 8) (antisense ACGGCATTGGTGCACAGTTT; MOE gapmer, wing and gap sizes not given here)", "2092 g"]
]}
